Hey, just so you know, these numbers are from the RNAGym collection of RNA variant scans (doi:10.1073/pnas.2313332121).

B1: TPR 5TU (parent)
chain: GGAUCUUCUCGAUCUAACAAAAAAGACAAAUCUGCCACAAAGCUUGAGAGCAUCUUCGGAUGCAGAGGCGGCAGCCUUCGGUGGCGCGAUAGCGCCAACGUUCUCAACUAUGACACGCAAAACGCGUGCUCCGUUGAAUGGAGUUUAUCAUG

Variants of: B1
test.name: polymerase ribozyme fitness, log enrichment relative to wild type (log ratio); higher = more active; in vitro selection for triplet polymerase activity
Variants at the floor of the assay were thinned out.
experimental.readout: polymerase ribozyme fitness (log ratio)

// below: answered variants
| mutation | polymerase ribozyme fitness (log ratio) |
| --- | --- |
| C85G C96U A113U | -3.8 |
| C57U G84U G126C | -0.969 |
| C57A C72G U77A C87A U127A G136A | ≤ -4.2 |

Task: Recorded polymerase ribozyme fitness (log ratio) for C18U G88C C103A G112C G143C , please?
Result: ≤ -4.2

Task: Recorded polymerase ribozyme fitness (log ratio) for A30U U77G G84U C129G G152C , please?
Result: ≤ -4.2

Task: Recorded polymerase ribozyme fitness (log ratio) for C32U G94U C116G , please?
Result: -3.95

Task: Recorded polymerase ribozyme fitness (log ratio) for G65C G74C G88A C93G U146A , please?
Result: ≤ -4.2

Task: Recorded polymerase ribozyme fitness (log ratio) for C10A A12U A47U C93G A137G , please?
Result: ≤ -4.2

Task: Recorded polymerase ribozyme fitness (log ratio) for A26G A41C G94A A115C , please?
Result: -3.45

Task: Recorded polymerase ribozyme fitness (log ratio) for U45C A52G C57A G92C , please?
Result: -2.64

Task: Recorded polymerase ribozyme fitness (log ratio) for C5A A20G A22C C35A U77G C87A A115C G124C , please?
Result: ≤ -4.2
